These entries and their values trace back to patent US20200030378A1.

- System under test: MCPyV KLL epitope presented by HLA-A*02:01 on cells (human; Merkel cell polyomavirus), A*02:0
- Assay info: cell-based or functional assay
Below: a set of entries, each annotated with reported EC50 (ng/uL DNA), IFN-γ secretion, COS-7 + HLA-A*02:01 + tLTAg plasmid.
Dear colleague, please return just the value in ng/µL DNA, with no unit written.

Check out these entries, answers already filled in.
// EC50 (ng/uL DNA), IFN-γ secretion, COS-7 + HLA-A*02:01 + tLTAg plasmid lookup, key: w876 clonotype 14 TCR (TCR) TCR alpha: CVVPSAGKSTF TCR beta: CASSEFAGQETQYF
5.4

What measured EC50 (ng/uL DNA), IFN-γ secretion, COS-7 + HLA-A*02:01 + tLTAg plasmid goes with w830 clonotype 3 TCR (TCR) TCR alpha: CAYPSTDKLIF TCR beta: CASSILGASNQPQHF ?
270

What value of EC50 (ng/uL DNA), IFN-γ secretion, COS-7 + HLA-A*02:01 + tLTAg plasmid has been reported for the following binder? w876 clonotype 8 TCR (TCR) TCR alpha: CVVYASKIIF TCR beta: CASSDTPDLNTEAFF
4.2

New cases:
Quick one: EC50 (ng/uL DNA), IFN-γ secretion, COS-7 + HLA-A*02:01 + tLTAg plasmid of w876 clonotype 13 TCR (TCR) TCR alpha: CVVTDTSGGGADGLTF TCR beta: CASSLAGLAGTDTQYF ?
3.9
